# TEST TARGET: CDK1/CyclinB1 (Homo sapiens)
# Sequence (P06493 whole entry): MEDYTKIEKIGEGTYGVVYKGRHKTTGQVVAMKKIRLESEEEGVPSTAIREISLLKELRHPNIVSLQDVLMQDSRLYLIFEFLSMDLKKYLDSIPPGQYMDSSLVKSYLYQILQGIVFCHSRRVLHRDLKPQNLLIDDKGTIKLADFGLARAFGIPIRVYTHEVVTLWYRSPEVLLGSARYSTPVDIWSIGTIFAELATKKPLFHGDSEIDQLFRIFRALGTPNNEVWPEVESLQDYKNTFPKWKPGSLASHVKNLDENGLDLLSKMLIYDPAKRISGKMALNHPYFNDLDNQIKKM
# Sequence (P14635 whole entry partner): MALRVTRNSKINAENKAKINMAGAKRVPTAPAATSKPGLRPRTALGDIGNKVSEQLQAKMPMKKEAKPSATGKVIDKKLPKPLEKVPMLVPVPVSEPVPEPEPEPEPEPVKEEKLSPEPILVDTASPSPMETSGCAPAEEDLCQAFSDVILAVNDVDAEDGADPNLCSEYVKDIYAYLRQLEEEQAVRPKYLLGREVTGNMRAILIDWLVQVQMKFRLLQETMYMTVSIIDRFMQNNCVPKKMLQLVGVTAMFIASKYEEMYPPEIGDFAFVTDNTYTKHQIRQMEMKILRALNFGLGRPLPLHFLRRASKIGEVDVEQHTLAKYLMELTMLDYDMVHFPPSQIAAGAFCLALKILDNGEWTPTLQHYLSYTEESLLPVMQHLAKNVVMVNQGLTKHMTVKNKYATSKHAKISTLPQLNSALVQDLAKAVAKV
# ASSAY NOTES: Lance Ultra KinaSelect Assay, CDK1
# MEASUREMENT CONDITIONS: ATP 20 μM; read-out: CDK1 LANCE assay (activity range), IC50
PARAMETER: IC50

In the examples that follow, each entry is paired with its recorded IC50.
NS(=O)(=O)Cc1cccc(Nc2ncnc(N3CCCn4nccc43)n2)c1; 100 to 1000 nM
COC[C@H]1CCCN1c1ncnc(Nc2cccc(CS(N)(=O)=O)c2)n1; 1000 to 10000 nM
NS(=O)(=O)Cc1cccc(Nc2ncnc(N3CCCC3c3ccccc3)n2)c1 (racemic); 1000 to 10000 nM

Requested field: IC50. Item: NS(=O)(=O)Cc1cccc(Nc2ncnc(N3Cc4cn[nH]c4C3)n2)c1 1000 to 10000 nM

Requested field: IC50. Item: NS(=O)(=O)Cc1cccc(Nc2ncnc(N3CCCCC3)n2)c1 > 10000 nM

Requested field: IC50. Item: NS(=O)(=O)Cc1cccc(Nc2ncnc(N3CCc4ncccc4C3)n2)c1 100 to 1000 nM

Requested field: IC50. Item: CN(C)CCC1CCCCN1c1ncnc(Nc2cccc(CS(N)(=O)=O)c2)n1 (racemic) > 10000 nM

* * *

# TEST TARGET: CDK2/CyclinA (Homo sapiens, UniProt P24941)
# Construct: GST
# ASSAY NOTES: Lance Ultra KinaSelect Assay, CDK2
# MEASUREMENT CONDITIONS: ATP 3 μM; read-out: CDK2 LANCE assay (activity range), IC50
pIC50: −log10 of the molar value.
PARAMETER: pIC50

NS(=O)(=O)Cc1cccc(Nc2ncnc(N3CCCn4nccc43)n2)c1; > 7.00
COC[C@H]1CCCN1c1ncnc(Nc2cccc(CS(N)(=O)=O)c2)n1; 5.00 to 6.00
NS(=O)(=O)Cc1cccc(Nc2ncnc(N3Cc4cn[nH]c4C3)n2)c1; 6.00 to 7.00

Requested field: pIC50. Item: CN(C)CCC1CCCCN1c1ncnc(Nc2cccc(CS(N)(=O)=O)c2)n1 (racemic) < 5.00

* * *

# TEST TARGET: UniProt:P50750
PARAMETER: IC50

COC[C@H]1CCCN1c1ncnc(Nc2cccc(CS(N)(=O)=O)c2)n1; 100 to 1000 nM

Requested field: IC50. Item: COC(=O)[C@H]1CCCN1c1ncnc(Nc2cccc(CS(N)(=O)=O)c2)n1 100 to 1000 nM

Requested field: IC50. Item: C[C@H]1CCCN1c1ncnc(Nc2cccc(CS(N)(=O)=O)c2)n1 100 to 1000 nM

* * *

Reported pIC50 values are given for each entry in this list.
# TEST TARGET: CDK2/CyclinA (Homo sapiens)
# Construct: GST
# ASSAY NOTES: Lance Ultra KinaSelect Assay, CDK2
# MEASUREMENT CONDITIONS: ATP 3 μM; read-out: CDK2 LANCE assay (activity range), IC50
pIC50: −log10 of the molar value.

In the examples that follow, each entry is paired with its recorded pIC50.
C[C@H]1CCCN1c1ncnc(Nc2cccc(CS(N)(=O)=O)c2)n1; 5.00 to 6.00
NS(=O)(=O)Cc1cccc(Nc2ncnc(N3CCC[C@@H]3C(F)(F)F)n2)c1; 5.00 to 6.00
NS(=O)(=O)Cc1cccc(Nc2ncnc(N3CCCCC3)n2)c1; < 5.00
NS(=O)(=O)Cc1cccc(Nc2ncnc(N3CCc4ncsc4C3)n2)c1; > 7.00
NS(=O)(=O)Cc1cccc(Nc2ncnc(N3CCCC3c3ccccc3)n2)c1 (racemic); < 5.00

Here's the next entry for you.
Requested field: pIC50. Item: NS(=O)(=O)Cc1cccc(Nc2ncnc(N3CCc4ncccc4C3)n2)c1 6.00 to 7.00

* * *

# TEST TARGET: T1, CDK9/Cyclin T1 (Homo sapiens, UniProt P50750)
# T1 construct: His
# T1 sequence (P50750 whole entry): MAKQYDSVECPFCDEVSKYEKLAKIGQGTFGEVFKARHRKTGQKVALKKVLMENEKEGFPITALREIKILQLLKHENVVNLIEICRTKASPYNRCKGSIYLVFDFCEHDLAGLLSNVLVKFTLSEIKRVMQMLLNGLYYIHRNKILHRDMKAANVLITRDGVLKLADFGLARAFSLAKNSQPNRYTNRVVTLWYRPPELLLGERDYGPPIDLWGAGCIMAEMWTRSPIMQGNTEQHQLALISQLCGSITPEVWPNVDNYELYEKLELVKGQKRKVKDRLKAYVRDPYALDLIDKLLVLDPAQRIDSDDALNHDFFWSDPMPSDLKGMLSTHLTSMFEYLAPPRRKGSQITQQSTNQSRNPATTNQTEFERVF
# T1 sequence (O60563 whole entry partner): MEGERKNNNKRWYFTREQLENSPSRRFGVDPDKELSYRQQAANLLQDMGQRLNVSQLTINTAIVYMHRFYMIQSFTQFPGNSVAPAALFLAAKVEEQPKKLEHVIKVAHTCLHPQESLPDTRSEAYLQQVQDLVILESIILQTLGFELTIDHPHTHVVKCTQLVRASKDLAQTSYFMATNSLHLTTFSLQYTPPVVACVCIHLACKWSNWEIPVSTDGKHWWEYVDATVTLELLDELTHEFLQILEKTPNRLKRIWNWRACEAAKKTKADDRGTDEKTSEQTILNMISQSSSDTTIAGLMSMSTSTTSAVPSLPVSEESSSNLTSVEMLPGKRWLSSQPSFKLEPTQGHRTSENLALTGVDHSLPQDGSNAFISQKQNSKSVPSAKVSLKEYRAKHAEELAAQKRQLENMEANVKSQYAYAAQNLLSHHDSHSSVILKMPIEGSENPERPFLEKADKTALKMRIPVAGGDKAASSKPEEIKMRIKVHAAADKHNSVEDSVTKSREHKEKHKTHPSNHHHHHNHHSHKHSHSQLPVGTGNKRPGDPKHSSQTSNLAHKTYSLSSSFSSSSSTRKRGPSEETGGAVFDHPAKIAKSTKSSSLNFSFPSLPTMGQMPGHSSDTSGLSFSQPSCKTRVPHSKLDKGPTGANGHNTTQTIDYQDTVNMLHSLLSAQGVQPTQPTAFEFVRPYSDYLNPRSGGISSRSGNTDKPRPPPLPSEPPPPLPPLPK
# ASSAY NOTES: LanthaScreen Eu Kinase Binding Assay, CDK9/Cyclin T1
# MEASUREMENT CONDITIONS: tracer 236, read-out: CDK9/Cyclin T1 (activity range), Kd
pKd: −log10 of the molar value.
PARAMETER: pKd

In the examples that follow, each entry is paired with its recorded pKd.
NS(=O)(=O)Cc1cccc(Nc2ncnc(N3CCCCC3c3ccccc3)n2)c1 (racemic) [Compound B9]; 6.00 to 7.00
COC(=O)[C@H]1CCCCN1c1ncnc(Nc2cccc(CS(N)(=O)=O)c2)n1 [Compound B6]; > 7.00
NS(=O)(=O)Cc1cccc(Nc2ncnc(N3CCCc4ccccc43)n2)c1 [Compound B42]; > 7.00
COC(=O)[C@H]1CCCN1c1ncnc(Nc2cccc(CS(N)(=O)=O)c2)n1 [Compound B21]; > 7.00

Requested field: pKd. Item: NS(=O)(=O)Cc1cccc(Nc2ncnc(N3CCOCC3)n2)c1 [Compound B10] 6.00 to 7.00

Requested field: pKd. Item: C[C@H]1CCCN1c1ncnc(Nc2cccc(CS(N)(=O)=O)c2)n1 [Compound B53] > 7.00

Requested field: pKd. Item: NS(=O)(=O)Cc1cccc(Nc2ncnc(N3Cc4ccncc4C3)n2)c1 [Compound B49] > 7.00

Requested field: pKd. Item: NS(=O)(=O)Cc1cccc(Nc2ncnc(N3CCCC3c3ccccc3)n2)c1 (racemic) [Compound B33] > 7.00

* * *

# TEST TARGET: T1, CDK9/Cyclin T1 (Homo sapiens, UniProt P50750)
# T1 construct: His
# ASSAY NOTES: LanthaScreen Eu Kinase Binding Assay, CDK9/Cyclin T1
# MEASUREMENT CONDITIONS: tracer 236, read-out: CDK9/Cyclin T1 (activity range), Kd
PARAMETER: Kd

NS(=O)(=O)Cc1cccc(Nc2ncnc(N3Cc4cncnc4C3)n2)c1; 100 to 1000 nM
NS(=O)(=O)Cc1cccc(Nc2ncnc(N3Cc4cccnc4C3)n2)c1; 1000 to 10000 nM
NS(=O)(=O)Cc1cccc(Nc2ncnc(N3CCC[C@H]3CO)n2)c1; 1000 to 10000 nM
NS(=O)(=O)Cc1cccc(Nc2ncnc(N3CCCCC3)n2)c1; 100 to 1000 nM
NS(=O)(=O)Cc1cccc(Nc2ncnc(N3CCc4sccc4C3)n2)c1; 100 to 1000 nM

Requested field: Kd. Item: COCC1CCCCN1c1ncnc(Nc2cccc(CS(N)(=O)=O)c2)n1 (racemic) 100 to 1000 nM

Requested field: Kd. Item: COC[C@@H]1CC[C@@H](COC)N1c1ncnc(Nc2cccc(CS(N)(=O)=O)c2)n1 > 10000 nM

Requested field: Kd. Item: NS(=O)(=O)Cc1cccc(Nc2ncnc(N3CCC[C@@H]3CNc3ccccc3)n2)c1 1000 to 10000 nM

* * *

Reported Kd values are given for each entry in this list.
# TEST TARGET: T1, CDK9/Cyclin T1 (Homo sapiens, UniProt P50750)
# T1 construct: His
# ASSAY NOTES: LanthaScreen Eu Kinase Binding Assay, CDK9/Cyclin T1
# MEASUREMENT CONDITIONS: tracer 236, read-out: CDK9/Cyclin T1 (activity range), Kd

NC(=O)[C@H]1CCCN1c1ncnc(Nc2cccc(CS(N)(=O)=O)c2)n1; > 10000 nM

Requested field: Kd. Item: COC(=O)[C@H]1CCN1c1ncnc(Nc2cccc(CS(N)(=O)=O)c2)n1 1000 to 10000 nM

Requested field: Kd. Item: NS(=O)(=O)Cc1cccc(Nc2ncnc(N3Cc4cn[nH]c4C3)n2)c1 < 100 nM

Requested field: Kd. Item: NS(=O)(=O)Cc1cccc(Nc2ncnc(N3CCC[C@@H]3c3ccccc3)n2)c1 < 100 nM

Requested field: Kd. Item: NS(=O)(=O)Cc1cccc(Nc2ncnc(N3CCC3c3ccccc3)n2)c1 (racemic) 100 to 1000 nM

* * *

# TEST TARGET: T1, CDK9/Cyclin T1 (Homo sapiens, UniProt P50750)
# T1 construct: His
# ASSAY NOTES: LanthaScreen Eu Kinase Binding Assay, CDK9/Cyclin T1
# MEASUREMENT CONDITIONS: tracer 236, read-out: CDK9/Cyclin T1 (activity range), Kd
Reported Kd values are given for each entry in this list.

In the examples that follow, each entry is paired with its recorded Kd.
NS(=O)(=O)Cc1cccc(Nc2ncnc(N3CCC(F)(F)CC3)n2)c1; 100 to 1000 nM
Nc1cccc2c1CCN(c1ncnc(Nc3cccc(CS(N)(=O)=O)c3)n1)C2; 1000 to 10000 nM
COC(=O)[C@@H]1CCCN1c1ncnc(Nc2cccc(CS(N)(=O)=O)c2)n1; > 10000 nM

Requested field: Kd. Item: CN1CCN(c2ncnc(Nc3cccc(CS(N)(=O)=O)c3)n2)CC1 > 10000 nM

Requested field: Kd. Item: COC[C@H]1CC[C@H](COC)N1c1ncnc(Nc2cccc(CS(N)(=O)=O)c2)n1 > 10000 nM

Requested field: Kd. Item: NS(=O)(=O)Cc1cccc(Nc2ncnc(N3CCC[C@@H]3CN3CCCC3)n2)c1 1000 to 10000 nM

Requested field: Kd. Item: NS(=O)(=O)Cc1cccc(Nc2ncnc(N3CCn4ccnc4C3)n2)c1 1000 to 10000 nM

Requested field: Kd. Item: NS(=O)(=O)Cc1cccc(Nc2ncnc(N3CCC[C@@H]3COc3ccccc3)n2)c1 1000 to 10000 nM
